Overview of reported Ki across a group of compounds:
Biological target: Carnitine O-palmitoyltransferase 2, mitochondrial (Rattus norvegicus, UniProt P18886)
Sequence (P18886 whole entry): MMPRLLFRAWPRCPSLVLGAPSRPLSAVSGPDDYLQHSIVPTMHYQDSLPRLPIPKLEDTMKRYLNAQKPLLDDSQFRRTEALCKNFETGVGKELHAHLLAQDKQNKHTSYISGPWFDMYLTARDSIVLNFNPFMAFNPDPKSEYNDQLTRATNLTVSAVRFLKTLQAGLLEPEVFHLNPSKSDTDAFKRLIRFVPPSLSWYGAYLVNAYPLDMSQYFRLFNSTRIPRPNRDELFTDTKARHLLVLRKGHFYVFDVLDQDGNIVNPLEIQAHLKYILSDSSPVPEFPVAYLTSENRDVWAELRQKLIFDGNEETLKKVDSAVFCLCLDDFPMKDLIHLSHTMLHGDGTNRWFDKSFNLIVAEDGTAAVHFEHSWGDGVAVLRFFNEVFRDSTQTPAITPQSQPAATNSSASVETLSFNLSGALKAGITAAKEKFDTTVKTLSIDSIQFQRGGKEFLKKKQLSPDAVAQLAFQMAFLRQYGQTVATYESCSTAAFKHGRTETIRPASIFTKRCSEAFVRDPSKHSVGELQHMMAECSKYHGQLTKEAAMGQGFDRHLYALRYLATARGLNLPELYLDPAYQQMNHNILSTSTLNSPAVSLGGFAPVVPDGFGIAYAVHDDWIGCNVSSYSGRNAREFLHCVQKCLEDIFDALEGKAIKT
quantity: Ki (mM)

compound: C[N+](C)(C)C[C@H](O)CC(=O)[O-]
systemTested: Carnitine O-palmitoyltransferase 2, mitochondrial (Rattus norvegicus, UniProt P18886)
endpointResult: 0.1
//
compound: CC(C)(C)CC(N)CC(=O)O (centres undefined)
systemTested: Carnitine O-palmitoyltransferase 2, mitochondrial (Rattus norvegicus, UniProt P18886)
endpointResult: 20
//
compound: CC(C)(C)CC(O)CC(=O)O (centres undefined)
systemTested: Carnitine O-palmitoyltransferase 2, mitochondrial (Rattus norvegicus, UniProt P18886)
endpointResult: 2.8
//
compound: CC(C)(C)C[C@H](O)CC(=O)O
systemTested: Carnitine O-palmitoyltransferase 2, mitochondrial (Rattus norvegicus, UniProt P18886)
endpointResult: 2.2
